Tested on: PXR:RXRa (NR concentration 270 nM, RXRa partner concentration 90 nM)
Assay: PBM binding z-score (relative to random genomic background probes); higher = stronger binding; sequences stand for … in GC…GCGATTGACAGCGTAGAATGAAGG
resultType: PBM binding z-score

In [3]: df
Out[3]:
                              seqtext                                targetdesc  valuereported
0  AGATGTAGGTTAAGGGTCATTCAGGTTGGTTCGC  PXR:RXRa (NR concentration 270 nM, RXRa partner concentration 90 nM)           5.52
1  TCTAGTTGGTCATAGGTCACACACTCGAAATGCG  PXR:RXRa (NR concentration 270 nM, RXRa partner concentration 90 nM)           3.48
2  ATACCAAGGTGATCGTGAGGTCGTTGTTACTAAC  PXR:RXRa (NR concentration 270 nM, RXRa partner concentration 90 nM)           2.84
3  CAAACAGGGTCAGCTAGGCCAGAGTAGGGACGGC  PXR:RXRa (NR concentration 270 nM, RXRa partner concentration 90 nM)           2.42
4  TCTCGGAGGACACGAAGATCAGAGCTTTCCAGAG  PXR:RXRa (NR concentration 270 nM, RXRa partner concentration 90 nM)         -0.151
5  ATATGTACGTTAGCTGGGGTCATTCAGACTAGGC  PXR:RXRa (NR concentration 270 nM, RXRa partner concentration 90 nM)            5.7

src = the supplement of paper PMC6555819
